# procedureDetails: Pharmacokinetics in mice (iv and PO)
# Type: in vivo
# conditionNotes: mouse, in vivo, PO 2.0 mg/kg
Answer each item with its documented Cmax.
Numbers only, in nM.

Previously resolved entries follow.
compound: COCCCOc1cc2c(cc1OC)-c1c(F)c(=O)c(C(=O)O)cn1[C@H]1[C@@H]2CCC1(C)C [Compound 3.1]
parameterMeasured: Cmax
resultValue: 3000

compound: COCCCOc1cc2c(cc1OC)-c1cc(=O)c(C(=O)O)cn1[C@H]1[C@@H]2CCC1(C)C [Compound 1.1]
parameterMeasured: Cmax
resultValue: 570

Continue with the compound presented below.
In: Note Cmax for the compound shown: COCCCOc1cc2c(cc1OC)-c1cc(=O)c(C(=O)O)cn1[C@H]1[C@@H]2OCC1(C)C [Compound 4.1]
Out: 1900

----------
Record form. Attribute: bioavailability. Fill in for each entry.
# procedureDetails: Pharmacokinetics in rat (iv and PO)
# Format: in vivo
# conditionNotes: in vivo, iv 1.0 mg/kg, PO 2.0 mg/kg, read-out: Oral BA (% F)
Answers are plain numbers, in %.

Some entries whose results are on file:
molecule: COCCCOc1cc2c(cc1OC)-c1cc(=O)c(C(=O)O)cn1[C@H]1[C@@H]2OCC1(C)C
unitName: %
bioavailability: 65
//
molecule: COCCCOc1cc2c(cc1OC)-c1c(F)c(=O)c(C(=O)O)cn1[C@H]1[C@@H]2CCC1(C)C
unitName: %
bioavailability: 57

In: Specify bioavailability for COCCCOc1cc2c(cc1OC)-c1cc(=O)c(C(=O)O)cn1[C@H]1[C@@H]2CCC1(C)C and stop.
Out: 97

----------
# procedureDetails: Pharmacokinetics in dog (iv and PO)
# Assay type: in vivo
# conditionNotes: in vivo, PO 1.0 mg/kg
Kindly supply the reported Cmax values for the records listed here.
Answers are plain numbers, in µM.

Here are 2 compounds together with their reported answers.
compound: COCCCOc1cc2c(cc1OC)-c1cc(=O)c(C(=O)O)cn1[C@H]1[C@@H]2OCC1(C)C [Compound 4.1]
unitName: µM
Cmax: 3.3

compound: COCCCOc1cc2c(cc1OC)-c1cc(=O)c(C(=O)O)cn1[C@H]1[C@@H]2CCC1(C)C [Compound 1.1]
unitName: µM
Cmax: 1.9

Now take the following compound into account.
In: Annotate the compound COCCCOc1cc2c(cc1OC)-c1c(F)c(=O)c(C(=O)O)cn1[C@H]1[C@@H]2CCC1(C)C [Compound 3.1] with its measured Cmax.
Out: 6.2

----------
# procedureDetails: Pharmacokinetics in rat (iv and PO)
# Type: in vivo
# conditionNotes: in vivo, PO 2.0 mg/kg
parameterMeasured: Tmax (h)
Numbers only, in h.

Previously resolved entries follow.
molecule: COCCCOc1cc2c(cc1OC)-c1cc(=O)c(C(=O)O)cn1[C@H]1[C@@H]2CCC1(C)C [Compound 1.1]
parameterMeasured: Tmax
resultValue: 1.33

molecule: COCCCOc1cc2c(cc1OC)-c1cc(=O)c(C(=O)O)cn1[C@H]1[C@@H]2OCC1(C)C [Compound 4.1]
parameterMeasured: Tmax
resultValue: 2

In: Output Tmax of COCCCOc1cc2c(cc1OC)-c1c(F)c(=O)c(C(=O)O)cn1[C@H]1[C@@H]2CCC1(C)C [Compound 3.1]
Out: 0.5

----------
What AUC was measured for each of the following?
# procedureDetails: Pharmacokinetics in mice (iv and PO)
# Format: in vivo
# conditionNotes: mouse, in vivo, PO 2.0 mg/kg, read-out: AUC PO
One number for each entry, in µM·h.

Past entries and their recorded results:
molecule: COCCCOc1cc2c(cc1OC)-c1cc(=O)c(C(=O)O)cn1[C@H]1[C@@H]2CCC1(C)C [Compound 1.1]
parameterMeasured: AUC
resultValue: 1.7

molecule: COCCCOc1cc2c(cc1OC)-c1cc(=O)c(C(=O)O)cn1[C@H]1[C@@H]2OCC1(C)C [Compound 4.1]
parameterMeasured: AUC
resultValue: 7.2

Now examine the next entry.
In: Query AUC for COCCCOc1cc2c(cc1OC)-c1c(F)c(=O)c(C(=O)O)cn1[C@H]1[C@@H]2CCC1(C)C [Compound 3.1]
Out: 9.5
